assay: inhibitors of TNFa-induced VCAM-1 surface display, cell-based, plate reader, pooled HUVEC, TNFa stimulus (AID 454); settings: HUVEC TNFa-induced VCAM-1 surface immunofluorescence,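 compound tested at 5 µM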
The campaign covered roughly 10,000 compounds. About 25 (0.2%) were called active.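 The calls were made as follows: active = compound among top-ranked inhibitors of TNF-induced VCAM-1 adhesion protein staining, with the hit upheld by image or statistical review; inactive = the rest, including hits rejected on review.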 This excerpt belongs to a sample that is enriched for actives.
Reply using exactly one outcome from active, inactive

// below: answered molecules
{"columns": ["MOLECULE", "GROUP"],
 "data": [
  ["Cc1cc(C)nc(NC(=O)c2ccc(OC(C)C)cc2)n1", "inactive"],
  ["CCOC(=O)C1CCN(c2c(NC3CCCc4ccccc43)c(=O)c2=O)CC1 (stereo not drawn)", "inactive"],
  ["O=C(CN(c1ccc(F)cc1)S(=O)(=O)c1ccc2c(c1)OCCO2)Nc1ccc2c(c1)OCO2", "inactive"],
  ["COc1ccccc1NC(=O)CSc1nnc(-c2ccncc2)n1CC1CCCO1 (stereo not drawn)", "inactive"],
  ["CCOc1cc2[nH]c(=S)n(CC3CCCO3)c(=O)c2cc1OCC (stereo not drawn)", "inactive"],
  ["CCCCC(=O)NCCNc1nc2c(c(=O)n(C)c(=O)n2C)n1Cc1ccccc1", "inactive"],
  ["CC(=O)[C@H]1CC[C@H]2[C@@H]3CCC4=CC(=O)CC[C@]4(C)[C@H]3CC[C@]12C", "active"],
  ["Nc1ncnc2nc(SCCN3CCCCC3)[nH]c12", "inactive"]
]}

Hey, what did the test say about COc1ccccc1CC(=O)NCc1ccc2c(c1)OCO2 ? inactive

What did this assay record as the result for CCCC1Cc2c(sc3ncnc(N)c23)CO1 (stereo not drawn) ? inactive

###

test: inhibitors of TNFa-induced VCAM-1 surface display, cell-based, plate reader, pooled HUVEC, TNFa stimulus (AID 454); conditions: HUVEC TNFa-induced VCAM-1 surface immunofluorescence,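 compound tested at 5 µM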
The campaign covered roughly 10,000 compounds. About 25 (0.2%) were called active.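 Rule for the calls: active = compound among top-ranked inhibitors of TNF-induced VCAM-1 adhesion protein staining, with the hit upheld by image or statistical review; inactive = the rest, including hits rejected on review.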 The list comes from a sample in which actives are over-represented; it also holds close analogues and randomly drawn compounds.
Hi! Could you answer with just one of these? active, inactive

Answered cases to consult:
{"columns": ["COMPOUND", "GROUP"],
 "data": [
  ["Cc1nnc(NC(=O)C2CCCO2)s1 (configuration not stated)", "inactive"],
  ["O=C(Cn1cnc2ccccc2c1=O)NCCC(=O)N1CCN(c2ccccc2)CC1", "inactive"],
  ["CCN1CCN(Cc2ccc(NC(=O)Nc3ccc(SC)cc3)cc2)CC1", "inactive"],
  ["O=c1nc(N2CCCC2)nc(Nc2ccccc2)[nH]1", "inactive"],
  ["Cn1cccc1Cc1nnc(SCC(=O)N2CCOCC2)n1-c1ccc(F)cc1", "inactive"]
]}

Continue with the compound presented below.
Which result was noted for this compound in the test: CC(=O)N1CCN(c2ccc(N=Cc3c(O)n(Cc4ccccc4)c(=O)[nH]c3=O)cc2)CC1 inactive

###

assay: inhibitors of TNFa-induced VCAM-1 surface display, cell-based, plate reader, pooled HUVEC, TNFa stimulus (AID 454); conditions: HUVEC TNFa-induced VCAM-1 surface immunofluorescence,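 compound tested at 5 µM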
About 25 (0.2%) of roughly 10,000 compounds were called active.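 Rule for the calls: active = compound among top-ranked inhibitors of TNF-induced VCAM-1 adhesion protein staining, with the hit upheld by image or statistical review; inactive = the rest, including hits rejected on review.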 Only a selection was taken, and actives are over-represented in it overall.
Permitted responses: active, inactive

Example cases with answers are listed next.
{"columns": ["MOLECULE", "GROUP"],
 "data": [
  ["COC(=O)c1cc(=O)n(Cc2ccc3c(c2)OCO3)c(=Nc2ccccc2)s1", "active"],
  ["C#CCNc1c(C)c(C)nc2ncnn12", "inactive"],
  ["CCC(=O)N[C@@H]1CC(C(C)(C)NC(=O)CC)CC=C1C (stereo partly drawn)", "inactive"],
  ["Cn1c(=O)c2c(nc(SCC(=O)NCc3ccc4c(c3)OCO4)n2Cc2ccccc2)n(C)c1=O", "inactive"],
  ["Cn1c(SCc2cccc3ccccc23)nnc1-c1ccco1", "inactive"],
  ["CCOC(=O)c1ccc(N=c2sc(C(=O)OC)cc(=O)n2Cc2ccco2)cc1", "active"]
]}

Please indicate how the test categorized O=C(c1ccco1)N1CCN(c2cccc(Cl)c2)CC1 . inactive

Which outcome was entered for the molecule CCOC(=O)c1ccc(NC(=O)CSCc2ccco2)cc1 in this test? inactive

###

assay: inhibitors of TNFa-induced VCAM-1 surface display, cell-based, plate reader, pooled HUVEC, TNFa stimulus (AID 454); details: HUVEC TNFa-induced VCAM-1 surface immunofluorescence,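 compound tested at 5 µM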
Among all 10,000 compounds or so, about 25 (0.2%) were called active.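 The calls were made as follows: active = compound among top-ranked inhibitors of TNF-induced VCAM-1 adhesion protein staining, with the hit upheld by image or statistical review; inactive = the rest, including hits rejected on review.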 The entries come from a sample that favours actives as a whole.
Permitted responses: t = active, f = inactive

{"columns": ["COMPOUND", "GROUP"],
 "data": [
  ["COC(=O)c1[nH]c2cc(OC)ccc2c1NC(=O)CCN1CCCCC1", "f"]
]}

For Cc1[nH]n(C(N)=S)c(=O)c1C(c1ccccc1)C(C#N)C#N (stereo unspecified) , what call appears in the results of this test? f

Status in this test for Clc1ccc(OCc2nnc(SCCN3CCCCC3)n2Cc2ccco2)cc1 ? t

GET /call?item= CC1=CCC2C(=O)N(c3nc(C)cc(C)n3)C(=O)C2C1 (stereo unspecified) returns the recorded outcome of this test. f

Identify the outcome logged in this assay for the compound shown: COCCn1c(COc2ccc(Cl)cc2)nnc1SCC(N)=O f

Given CN1C(=O)C(CC(=O)N2CCN(C(c3ccccc3)c3ccccc3)CC2)N(C)C1=O (stereo unspecified) , state the outcome it received in this test. f

Which result was noted for this compound in the test: COc1cc(CC(=O)Nc2ncc(C)s2)cc(OC)c1OC f

###

assay: inhibitors of TNFa-induced VCAM-1 surface display, cell-based, plate reader, pooled HUVEC, TNFa stimulus (AID 454); settings: HUVEC TNFa-induced VCAM-1 surface immunofluorescence,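 compound tested at 5 µM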
Out of some 10,000 compounds screened, about 25 (0.2%) were called active.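 Rule for the calls: active = compound among top-ranked inhibitors of TNF-induced VCAM-1 adhesion protein staining, with the hit upheld by image or statistical review; inactive = the rest, including hits rejected on review.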 The full list was thinned out, with actives kept by preference.
// allowed return values: True = active, False = inactive

Known results for molecules:
{"columns": ["MOLECULE", "GROUP"],
 "data": [
  ["CCc1oc2ccccc2c1C(=O)c1cc(Br)c(O)c(Br)c1", "False"],
  ["Cn1c(=O)[nH]c(=O)c2[nH]c(CN3CCN(C(=O)c4ccco4)CC3)nc21", "False"]
]}

Give the logged outcome of this assay for the following molecule: Cc1cc(NC(=O)CSc2nnc(COc3cccc(C)c3C)n2Cc2ccco2)no1 False

# outcome recorded in this test, key = CCOc1cccc(Oc2ccc(C(F)(F)F)cn2)c1 False

Which result was noted for this molecule in the test: COC(=O)c1[nH]c2ccccc2c1NC(=O)CN1CCC(C(N)=O)(N2CCCCC2)CC1 False

Would you mind telling me which call this test gave Cc1ccc(S(=O)(=O)N2CCCC2C(=O)n2nc(C)cc2C)cc1 (centres undefined) ? False

Kindly provide the recorded test outcome for the following molecule: Cc1cc(-n2c(C)cc(C(=O)CSc3nnnn3-c3ccc(Cl)cc3)c2C)no1 False

I would be grateful if you could indicate the recorded call for CCOC(=O)c1[nH]c(C)c(C(=O)Nc2ccc(C)c(Cl)c2)c1C . False

Record request — test call for COc1ccc(-c2nc3c(c(=O)n(C)c(=O)n3C)n2CC2CC(c3ccccc3)=NO2)cc1OC (centres undefined) True
